Anti-CD28 Fab signal in the presence of CD28 (phage binding ELISA): recorded values
target: T1, Anti-CD28 Fab (SEQ ID NOs: 696, 697); assay: phage ELISA on plate-bound anti-CD28 Fab, wells pre-incubated with CD28 antigen as competitor
T1 construct: Biotinylated and captured on neutravidin coated plates in the phage ELISA
T1 sequence (VH, as listed by the source, chain 1 of 2): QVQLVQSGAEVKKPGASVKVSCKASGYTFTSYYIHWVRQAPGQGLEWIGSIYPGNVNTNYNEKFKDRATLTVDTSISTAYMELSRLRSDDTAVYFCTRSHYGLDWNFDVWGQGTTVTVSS
T1 sequence (VL, as listed by the source, chain 2 of 2): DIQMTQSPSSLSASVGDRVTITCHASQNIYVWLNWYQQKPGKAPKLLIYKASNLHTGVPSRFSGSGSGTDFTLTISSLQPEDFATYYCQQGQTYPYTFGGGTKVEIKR

binder | test-value
YCEGHSDEYMLKCL (Clonal phage of the Peptide-87 library) [Phage-673] | 0.07
YCDGHAIEYMQKCL (Clonal phage of the Peptide-87 library) [Phage-679] | 0.07
YCQGHMPEYMDKCL (Clonal phage of the Peptide-87 library) [Phage-681] | 0.07
YCAGHIEEYMWKCL (Clonal phage of the Peptide-87 library) [Phage-680] | 0.06

Query binder follows.
Input: Provide Anti-CD28 Fab signal in the presence of CD28 (phage binding ELISA) value for the following binder: YCEGHSAEYMNKCL (Clonal phage of the Peptide-87 library) [Phage-676]
Output: 0.07

// data source = patent US20260242478A1
